This section presents sequences with their documented protein stability index values.
measurementDescription: protein stability index of a GFP-peptide fusion (GPS, HEK-293T) (PSI 1-6); higher = more stable;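 also: 24-mer peptide tiles fused after GFP, lentivirally expressed, FACS-sorted into six equal bins by GFP/DsRed ratio, decoded by Illumina sequencing, PSI is the read-weighted mean bin number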
testParameters: treatment: MLN4924 1 uM, 8 h; c terminus: a fixed tail appended
Kindly provide the number alone.

- biosequence: "DFLEEVEEIVFNLTNNVDLDNTKK [MNAT1]"
  protein stability index: 3.18

Which protein stability index is reported for this sequence? DNSDYDYSALSCTSDASFHPAFLP [KCNG1]
3.46

---

measurementDescription: protein stability index of a GFP-peptide fusion (GPS, HEK-293T) (PSI 1-6); higher = more stable
testParameters: treatment: DMSO; c terminus: a fixed tail appended
This section presents sequences with their documented protein stability index values.
Kindly provide the number alone.

Which protein stability index is reported for this sequence? LKHWRRAMELRHQGGEYLPKPEPP [FEM1A]
3.08

Which protein stability index is reported for this sequence? ESVVKSEDFSLPAYMDRRDHPLPE [COX4I1]
5.1

Which protein stability index is reported for this sequence? TSRWSSMEIMEAYSVARQFNLTPP [KCNAB2]
2.57

Which protein stability index is reported for this sequence? VLMWLLTYVGALFNGLTLLLMAVV [RTN1]
2.51

Which protein stability index is reported for this sequence? FRETEKSRWSEASRAILQRVQAAA [ALKBH7]
3.21

---

measurementDescription: protein stability index of a GFP-peptide fusion (GPS, HEK-293T) (PSI 1-6); higher = more stable
testParameters: treatment: DMSO; c terminus: a fixed tail appended
Record Fulfilled whenever protein stability index is at 3 or higher; record Not fulfilled when lower.

Consider the worked cases shown below.
- biosequence: "ADPMDWSPSNVQKWLLWTEHQYRL [SPDEF]"
  classLabel: "Not fulfilled"
- biosequence: "LWGRTQEEAEELAKEMSVPFYTSR [GFOD1]"
  classLabel: "Fulfilled"
- biosequence: "LQKLLSGRSREELDELTGEVAGGG [FEM1A]"
  classLabel: "Fulfilled"
- biosequence: "DQERIKVERKRLRNRLAATKCRKR [JUNB]"
  classLabel: "Fulfilled"
- biosequence: "IQVEDIRIRAILSTYRKRTPVMEG [LOXL2]"
  classLabel: "Not fulfilled"

Could you tell me if the measured protein stability index of QAELSYKKVSEGPPLRLWRSVIEV [DLC1] reaches 3 or more?
Not fulfilled

Could you tell me if the measured protein stability index of PAADGARAPRSPGQVTPRGLRLRL [C6orf223] reaches 3 or more?
Fulfilled

---

This section presents sequences with their documented protein stability index values.
measurementDescription: protein stability index of a GFP-peptide fusion (GPS, HEK-293T) (PSI 1-6); higher = more stable
testParameters: treatment: MLN4924 1 uM, 8 h; c terminus: a fixed tail appended

The following sequences have reported results that may help.
- biosequence: "LNRALSNLSSRWKNWWVRGILTLA [CDS2]"
  protein stability index: 3.1
- biosequence: "LLGLKAFLGLFFIVRFLESNWFVW [FADS1]"
  protein stability index: 2.31
- biosequence: "VRQAFQDQDDRRTWDGRPLTMAAT [GFOD1]"
  protein stability index: 3.65
- biosequence: "ESTTKESSEASQLEDAAGGDSASE [FBXO34]"
  protein stability index: 5.71
- biosequence: "SEGLVGALMHVMQKRSRAIHSSDE [WAS]"
  protein stability index: 3.79

Which protein stability index is reported for this sequence? LLARPGTGEHREFKLDKKYQRPQD [FBF1]
4.16

Which protein stability index is reported for this sequence? NIPMETEETHLEETTESQQNGEEG [SMARCE1]
5.6

Which protein stability index is reported for this sequence? PAQSHTLQANDVFHKQQWFNCIRA [NET1]
2.71

Which protein stability index is reported for this sequence? TGCVLGSSGKVLPKWGWEQLEVTC [POMT2]
2.25

Which protein stability index is reported for this sequence? SYNITVTATDGGSPPLSTEAHFML [PCDHGA10]
2.09

Which protein stability index is reported for this sequence? RIKIWDVYTGKLLLNLVDHTEVVR [WSB1]
2.57

Which protein stability index is reported for this sequence? SPREGEELKPEDKDPRDPEESKEP [GNAS]
5.71

Which protein stability index is reported for this sequence? GCEHSCVSSEDSFVCQCFEGYILR [MATN2]
3.27
